# measurement_protocol: NCI Yeast Anticancer Drug Screen. Data for the rad18 strain (AID 177)
# cond: S. cerevisiae rad18 mutant growth inhibition; at 3.7 µM
This is part of a sample that, as a whole, favours compounds with a hit. Of some 79,000 tested, about 15% had one in any assay. Activity calls are given as the source filed them. Rule as the data show it: active = growth inhibition above about 70%; inactive = the rest.
Pick one: active, inactive

# count of solved cases: 3
>>> class_assignment("CN(C)N=Nc1ccccc1C(=O)NC#N")
"inactive"
>>> class_assignment("Cc1sc2ccc3ccccc3c2[n+]1C")
"inactive"
>>> class_assignment("O=Cc1ccc2c(c1)C(=O)c1ccccc1C2=O")
"inactive"

Fill in: this test's call for CCOC1Oc2ccccc2-c2nc(N)ncc21 (stereo unspecified) is ___
inactive

Outcome logged for CNC(=O)OCc1c(COC(=O)NC)c(-c2ccc(Cl)cc2)n2c1CCC2 in this assay:
inactive

Given C=C1CCC(O)C/C1=C/C=C1\CCCC2(C)C1CCC2C(C)CCCC(C)C (stereo unspecified) , state the outcome it received in this test.
inactive

Entry NC(=O)C(=O)NNc1ccccc1 : call = ?
inactive

Given O=C(O)C1CC(c2ccccc2)=NN1c1ccccc1 (stereo unspecified) , state the outcome it received in this test.
inactive

Per the assay record, what outcome was assigned to O=C1CC(=O)c2ccccc21 ?
inactive

---

# measurement_protocol: NCI Yeast Anticancer Drug Screen. Data for the rad18 strain (AID 177)
# cond: S. cerevisiae rad18 mutant growth inhibition; at 11.0 µM; hits give high values
Compounds without any hit were thinned out: in the full panel of roughly 79,000, 15% have a hit.
value_kind: growth inhibition (%)
Answers are plain numbers, in %.

>>> measured_result("CCCCc1ccc(-n2c(C)c(COC(=O)NC)c(COC(=O)NC)c2C)cc1")
59
>>> measured_result("O=C(O)Cc1cc(F)ccc1C(=O)O")
0
>>> measured_result("O=C1CSC(c2cccc(Cl)c2)N1c1ccc(-c2ccc(-n3c(-c4ccccc4)nc4ccccc4c3=O)cc2)cc1 (centres undefined)")
14

I need growth inhibition for every entry listed below, if you could help.
1. Cc1c(C)c(C)c(CSC(=N)N)c(C)c1C
2. Cc1cccc2c1nc1ccc(Cl)cc1[n+]2C
3. COC(=O)CC1CCc2c(ccc3ccccc23)C1(C)C(=O)OC (centres undefined)
4. COc1cc(/C=C2\CCC/C(=C\c3ccc(O)c(OC)c3)C2=O)ccc1O
5. CC1=NOC(=O)/C1=C/c1ccc2c(c1)OCO2
6. Cc1c(C(C)C)cc(OCCO)cc1C(C)C
7. C[CH2][Sn]([CH2]C)([O]C(=O)C(N)Cc1ccccc1)[O]C(=O)C(N)Cc1ccccc1 (centres undefined)
8. CCCCC/C(=C(\C#N)C(=O)OCC)c1ccccc1

-58
91
-2
3
10
-5
6
2

---

# measurement_protocol: NCI Yeast Anticancer Drug Screen. Data for the rad50 strain (AID 155);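 also: 0% = growth of vehicle-only cultures of the same strain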
# cond: S. cerevisiae rad50 strain growth inhibition; at 1.2 µM; hits give high values
Compounds without any hit were thinned out: in the full panel of roughly 79,000, 15% have a hit.
value_kind: growth inhibition (%)
Numbers only, in %.

Recorded growth inhibition, per entry:
>>> measured_result("CCCCCCCCCCCCNC(C)=O")
-10
>>> measured_result("CCOC(=O)/C(=C\\c1ccc(C#N)cc1)C(C)=O")
-9
>>> measured_result("CC(C)/C(Cl)=N\\OC(=O)Nc1ccc(F)cc1F")
2
>>> measured_result("COC1=C(OC)C(=O)C(Sc2ccc3ccccc3c2)=CC1=O")
-15
>>> measured_result("COc1cc(O)c2c(c1O)C(=O)c1cc(C)ncc1C2=O")
8

Hello, I would appreciate it if you could give growth inhibition for each entry below.
1. O=C(COC(=O)c1ccccc1)c1ccc(Br)cc1
2. OC(/C=C/c1ccccc1)(Cc1cc(-c2ccccc2)n[nH]1)c1ccccc1 (stereo not given)

1: 17; 2: 8

For the 7 compounds below, give their growth inhibition values.
1. Cc1cccc(C(C)(C)C)c1NC(=O)C(C#N)C1=C(Cl)C(=O)c2ccccc2C1=O (stereo not given)
2. O=C(O)c1cc2ccccc2c2c1C(=O)c1ccccc1-2
3. CN(C)CCNc1ccc2ncnc3c2c1C(=O)c1ccccc1-3
4. O=C(NCCCl)Sc1ccc(Cl)cc1
5. CNCCCNc1c2ccccc2nc2cccc([N+](=O)[O-])c12
6. COc1cccc(/C=N/C(/N=C/c2cccc(OC)c2O)c2cccc(OC)c2O)c1O
7. O=C(O)Cc1cc(F)ccc1C(=O)O

1: 4; 2: 4; 3: 94; 4: 4; 5: 73; 6: 4; 7: 3
